Reported folding stability dG values follow for various variants
B1: 2K2A (parent)
chain: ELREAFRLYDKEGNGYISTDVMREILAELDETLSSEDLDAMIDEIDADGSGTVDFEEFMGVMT

- Variants of: B1
- assay.notes: folding stability dG (cDNA display proteolysis); higher = more stable
- experimental.context: PBS, room temperature
Answer format: numeric, kcal/mol implied, no suffix.

Solved cases (4 shown):
monomer.sequence | unit.tag | folding stability dG
ELREAFRLYDKEGNGYISTDVMREILAELLETLSSEDLDAMIDEIDADGSGTVDFEEFMGVMT [D30L] | kcal/mol | 1.93
ELREAFRLYDKEGNGYISTDVMREILAELDETLSSEDLDAMIDEIDPDGSGTVDFEEFMGVMT [A47P] | kcal/mol | 1.92
ELREAFRLYDKEGNGYISTDVMREILAELDETLSSEDLDAMIDVIDADGSGTVDFEEFMGVMT [E44V] | kcal/mol | 2.01
ELREAFRLYDKQGNGYISTDVMREILAELDETLSSEDLDAMIDEIDADGSGTVDFEEFMGVMT [E12Q] | kcal/mol | 1.56

Here is another variant to look at.
Item ELREAFRLYDKEGNGYISTDVMREILAELDETLSSEDLAAMIDEIDADGSGTVDFEEFMGVMT [D39A] has what recorded folding stability dG?
1.48
